Give measured IC50 for each item. Keep answers brief.
- System tested: HIV-1 integrase (wild-type IN) (Human immunodeficiency virus type 1 group M subtype B)
- Protocol text: HIV-1 integrase strand transfer assay (32P-labeled 21-mer, gel)
- Assay type: biochemical
- Applied conditions: wild-type IN 200 nM, 7.5 mM MnCl2; read-out: Inhibition of IN Catalytic Activities IC50 (μM) Strand Transfer
Output spec: scalar in µM, unitless text.

Item under review: "C=CCn1c(=O)c(C(=O)Nc2ccccc2S(N)(=O)=O)c(O)c2ccccc21" . Reported IC50?
45

Again, but for "CCCCn1c(=O)c(C(=O)Nc2ccccc2S(N)(=O)=O)c(O)c2ccccc21"
17

Again, but for "CCCCCn1c(=O)c(C(=O)Nc2ccccc2S(N)(=O)=O)c(O)c2ccccc21"
13

###

- System tested: HIV-1 integrase (wild-type IN) (Human immunodeficiency virus type 1 group M subtype B, UniProt P12497)
- Protocol text: HIV-1 integrase strand transfer assay (32P-labeled 21-mer, gel)
- Type: biochemical
- Applied conditions: unit inferred; read-out: IN inhibition activity Strand transfer
Give measured IC50 for each item. Keep answers brief.
Output spec: scalar in µM, unitless text.

Item under review: O=C(C1=C(O)C(=O)N(c2nc3ccccc3s2)C1c1ccccn1)c1ccc(Cl)cc1 (centres unmarked) [Compound M28A22] . Reported IC50?
83

Again, but for O=C(O)c1cc(-c2ccc(/C=C/c3cc(C(F)(F)F)[nH]c(=O)n3)o2)ccc1Cl [AV15A12]
50

Again, but for N#C/C(=C\c1ccc(-c2ccc(C(=O)O)c(O)c2)o1)c1nc2ccccc2[nH]1 [AV15A31]
24

Again, but for O=C(CSc1nnnn1-c1ccccc1)NNC(=O)c1ccc(O)cc1O [AS9A8]
61

###

- System tested: HIV-1 integrase (wild-type IN) (Human immunodeficiency virus type 1 group M subtype B)
- Protocol text: HIV-1 integrase strand transfer assay (32P-labeled 21-mer, gel)
- Assay type: biochemical
- Applied conditions: wild-type IN 200 nM, 7.5 mM MnCl2; read-out: Inhibition of IN Catalytic Activities IC50 (μM) Strand Transfer
Measured endpoint: IC50 (µM)
Output spec: scalar in µM, unitless text.

Item under review: O=C(NNC(=O)c1c(O)c2ccccc2[nH]c1=O)c1ccccc1Cl [XR44] . Reported IC50?
26

Again, but for COc1cc(/C=C2/SC(=S)N(CC(=O)O)C2=O)ccc1OCc1ccccc1Cl [OT4]
22

Again, but for COc1ccc(/C=C2/SC(=S)N(CC(=O)O)C2=O)cc1CCc1ccc(Cl)cc1Cl [OT6]
13

Again, but for COc1ccc(C=C2SC(=S)N(CCC(=O)Nc3ccc(C(=O)O)c(O)c3)C2=O)cc1OC [Compound X192]
17

Again, but for Cc1ccc(S(=O)(=O)N(CC(=O)Nc2ccccc2C(=O)O)c2cccc(Cl)c2)cc1 [OT24]
71

Again, but for CCn1cc(C(=O)O)c(=O)c2cnc(N3CCN(C(=S)NC(=O)c4ccc(F)c(F)c4)CC3)nc21 [ROM3A4]
59

Again, but for O=C(NC(=S)N1CCN(c2cc3c(cc2F)c(=O)c(C(=O)O)cn3C2CC2)CC1)c1ccc(Cl)cc1 [ROM3A9]
53

Again, but for COc1ccc(/C=C2/SC(=S)N(CC(=O)O)C2=O)cc1OCc1ccccc1 [OT5]
54

Again, but for CCn1c(=O)c(C(=O)Nc2cc(Cl)ccc2OC)c(O)c2ccccc21 [XR5]
19

Again, but for O=C(CCN1C(=O)C(=Cc2ccc3c(c2)OCO3)SC1=S)Nc1ccc(C(=O)O)c(O)c1 [Compound X188]
23

Again, but for CCOc1ccc2c(c1)C(=C1SC(C(=O)OC)=C(C(=O)OC)S1)C(=S)C(C)(C)N2C(=O)c1ccccc1F [OT2]
95

Again, but for CCCCCn1c(=O)c(C(=O)Nc2cc([N+](=O)[O-])ccc2O)c(O)c2ccccc21 [XR6]
9

Again, but for O=C(O)CCN1C(=O)/C(=C\c2ccc(-c3cccc(Cl)c3)o2)SC1=S [RT23]
21

Sourced from patent US8183236B2
